Every entry's value here was drawn from the NIST ThermoML archive (doi:10.1016/j.tca.2013.08.016).

procedure-details: refractive index (Na D-line) (dimensionless); φn = volume fraction of the nth substance listed
condition-parameters: 313.15 K; 101 kPa; Liquid; Standard Abbe refractometry; φ2 = 0
Numbers after ± are expanded uncertainties.
Entries and their refractive index

CCO [ethanol] + CCCC[n+]1ccc(C)cc1.F[B-](F)(F)F | 1.3527 ± 0.00041
CCO [ethanol] + CCCC[n+]1ccccc1.F[B-](F)(F)F | 1.3527 ± 0.00041
CCO [ethanol] + CCCC[n+]1cccc(C)c1.F[B-](F)(F)F | 1.3527 ± 0.00041
CO [methanol] + CCCC[n+]1ccc(C)cc1.F[B-](F)(F)F | 1.32015 ± 0.0004
CO [methanol] + CCCC[n+]1cccc(C)c1.F[B-](F)(F)F | 1.32015 ± 0.0004

Please look at the following compound next.
Give the value of refractive index reported for the following: CO [methanol] + CCCC[n+]1ccccc1.F[B-](F)(F)F
1.32015 ± 0.0004

* * *

procedure-details: refractive index (Na D-line) (dimensionless); φn = volume fraction of the nth substance listed
condition-parameters: 313.15 K; 101 kPa; Liquid; Standard Abbe refractometry; φ1 = 1
± gives the expanded uncertainty stated by the source.
assay-readout: refractive index

The cases that follow already have their refractive index on record.
CCCC[n+]1cccc(C)c1.F[B-](F)(F)F [1-butyl-3-methylpyridinium tetrafluoroborate] + CCO | 1.44706 ± 0.00045
CCCC[n+]1cccc(C)c1.F[B-](F)(F)F [1-butyl-3-methylpyridinium tetrafluoroborate] + CO | 1.44706 ± 0.00045
CCCC[n+]1ccccc1.F[B-](F)(F)F [1-butylpyridinium tetrafluoroborate] + CO | 1.4419 ± 0.00045

Here's the next entry for you.
Return value of refractive index for input CCCC[n+]1ccccc1.F[B-](F)(F)F [1-butylpyridinium tetrafluoroborate] + CCO , no commentary.
1.4419 ± 0.00045

* * *

procedure-details: refractive index (Na D-line) (dimensionless); φn = volume fraction of the nth substance listed
condition-parameters: 303.15 K; 101 kPa; Liquid; Standard Abbe refractometry; φ1 = 1
assay-readout: refractive index
Form field (numeric): enter value without unit.

CCCC[n+]1cccc(C)c1.F[B-](F)(F)F [1-butyl-3-methylpyridinium tetrafluoroborate] + CO | 1.44976
CCCC[n+]1cccc(C)c1.F[B-](F)(F)F [1-butyl-3-methylpyridinium tetrafluoroborate] + CCO | 1.44976
CCCC[n+]1ccccc1.F[B-](F)(F)F [1-butylpyridinium tetrafluoroborate] + CCO | 1.44454

Please give the documented refractive index of CCCC[n+]1ccccc1.F[B-](F)(F)F [1-butylpyridinium tetrafluoroborate] + CO
1.44454

* * *

procedure-details: refractive index (Na D-line) (dimensionless); φn = volume fraction of the nth substance listed
condition-parameters: 323.15 K; 101 kPa; Liquid; Standard Abbe refractometry; φ1 = 1
assay-readout: refractive index
Give the figure by itself; no unit, no explanation.

Example entries begin here.
CCCC[n+]1ccccc1.F[B-](F)(F)F [1-butylpyridinium tetrafluoroborate] + CCO | 1.43924
CCCC[n+]1cccc(C)c1.F[B-](F)(F)F [1-butyl-3-methylpyridinium tetrafluoroborate] + CO | 1.44425
CCCC[n+]1cccc(C)c1.F[B-](F)(F)F [1-butyl-3-methylpyridinium tetrafluoroborate] + CCO | 1.44425

Retrieve refractive index measured for CCCC[n+]1ccccc1.F[B-](F)(F)F [1-butylpyridinium tetrafluoroborate] + CO and print it.
1.43924
